- Target Of Assay: Cathepsin K (Homo sapiens, UniProt P43235)
- Sequence (P43235 whole entry): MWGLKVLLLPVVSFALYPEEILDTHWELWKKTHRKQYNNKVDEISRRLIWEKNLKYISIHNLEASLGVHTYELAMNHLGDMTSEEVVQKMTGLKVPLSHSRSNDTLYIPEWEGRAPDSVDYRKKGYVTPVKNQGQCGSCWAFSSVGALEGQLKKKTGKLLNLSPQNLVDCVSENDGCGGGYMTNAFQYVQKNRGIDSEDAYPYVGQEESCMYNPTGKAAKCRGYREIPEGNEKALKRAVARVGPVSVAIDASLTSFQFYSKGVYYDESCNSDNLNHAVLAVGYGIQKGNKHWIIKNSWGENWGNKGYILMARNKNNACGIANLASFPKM
- Experiment Description: Inhibitory activity against recombinant human cathepsin K
Test Readout: pIC50
# pIC50 is unitless: minus log10 of the molar concentration; print number only

Name the reported pIC50 value associated with the compound CN(CCCC[C@@H](C=O)NC(=O)OC(C)(C)C)C(=O)C(F)(F)F
7.30

Name the reported pIC50 value associated with the compound COCC[C@@H](C=O)NC(=O)OC(C)(C)C
6.17

Name the reported pIC50 value associated with the compound CC(C)(C)OC(=O)N[C@H](C=O)CCCc1ccccc1
7.82

Name the reported pIC50 value associated with the compound CC(C)(C)OC(=O)N[C@H](C=O)C(C)(C)C
4.28

Name the reported pIC50 value associated with the compound CCC[C@@H](C=O)NC(=O)OC(C)(C)C
7.42

Name the reported pIC50 value associated with the compound CCCC[C@@H](C=O)NC(=O)OC(C)(C)C
7.29

Name the reported pIC50 value associated with the compound CN(CC[C@@H](C=O)NC(=O)OC(C)(C)C)C(=O)C(F)(F)F
7.01

Name the reported pIC50 value associated with the compound C=C(C)C[C@@H](C=O)NC(=O)OC(C)(C)C
7.10

Name the reported pIC50 value associated with the compound COC(=O)NCCCC[C@@H](C=O)NC(=O)OC(C)(C)C
7.82

Name the reported pIC50 value associated with the compound CC(C)(C)OC(=O)N[C@H](C=O)CCCC1CCCCC1
7.80

Name the reported pIC50 value associated with the compound CCCC[C@@H](C=O)NC(=O)[C@H](CC(C)C)NC(=O)OCc1ccccc1
9.96

Name the reported pIC50 value associated with the compound CCCCCC[C@@H](C=O)NC(=O)OC(C)(C)C
7.64

* * *

- Target Of Assay: Cathepsin K (Homo sapiens)
- Experiment Description: Inhibitory activity against recombinant human cathepsin K
Label Yes when IC50 < 40 nM; otherwise No.

Check if IC50 falls below 40 nM for CC(C)(C)OC(=O)N[C@H](C=O)COCc1ccccc1 .
Yes

Check if IC50 falls below 40 nM for COC(=O)NC[C@@H](C=O)NC(=O)OC(C)(C)C .
No

Check if IC50 falls below 40 nM for CC(C)C[C@@H](C=O)NC(=O)OC(C)(C)C .
Yes

Check if IC50 falls below 40 nM for CN(CCC[C@@H](C=O)NC(=O)OC(C)(C)C)C(=O)C(F)(F)F .
Yes

Check if IC50 falls below 40 nM for CC(C)(C)OC(=O)N[C@H](C=O)CCC1CCCCC1 .
Yes
